Assay: physchem
Details: fasted state simulated intestinal fluid
test.readout: log10(solubility) (log10 of the value in µM)
Annotation: log10 of solubility, µM basis.

Asked: Recorded log10(solubility) for "Cc1cc(C)c2cc1C(=O)NCCNC(=O)CCCSc1cc-2nc(N)n1" , please?
Given back: 2.03

Asked: Quick check: log10(solubility) of "CSc1nc(N)nc(-c2ccc3c4c(cc(Cl)cc24)COC3)n1" ?
Given back: 1.46

Asked: log10(solubility) lookup needed for "Cc1cc(C)c2cc1C(=O)NCCCCCOc1cccc(c1)Sc1cc-2nc(N)n1" , thanks.
Given back: 1.59

Asked: Recorded log10(solubility) of "Cc1cc(C)c2cc1C(=O)NCCCCNC(=O)CCSc1cc-2nc(N)n1" , please.
Given back: 2.74

Asked: Quick one: log10(solubility) of "COc1cc(C)c2cc1C(=O)NCCCOc1cccc(c1)Sc1cc-2nc(N)n1" ?
Given back: 2.41

Asked: Given "Cc1cc(C)c2cc1C(=O)NCCOC(=O)NCCSc1cc-2nc(N)n1" , state its recorded log10(solubility).
Given back: 2.96

Asked: I am curious: what log10(solubility) value has been reported for "CCOc1cc(C)c2cc1C(=O)NCCCOc1cccc(c1)Sc1cc-2nc(N)n1" ?
Given back: 2.27

Asked: Give the measured log10(solubility) of "Cc1cc(C)c2cc1C(=O)NCCCCCNC(=O)CCSc1cc-2nc(N)n1" .
Given back: 2.23

Asked: Tell me the measured log10(solubility) of "Cc1cc(C)c2cc1C(=O)NCCCCOc1cccc(c1)Sc1cc-2nc(N)n1" , please.
Given back: 1.84

Asked: # query: log10(solubility) of entry "Cc1cc(C)c2cc1C(=O)NCCCC(=O)NCCSc1cc-2nc(N)n1"
Given back: 2.07

Asked: Looking for the measured log10(solubility) of "Cc1cc(C)c2cc1C(=O)NCCNC(=O)OCCSc1cc-2nc(N)n1" , can you help?
Given back: 2.05

* * *

Experiment: Tmax in athymic nu/nu mouse at 200 mg/kg, po
Assay type: ADME, organism-based
Parameters: dose 200 mg/kg, route oral
Details: in vivo
test.readout: Tmax (min)
The answer is to be given in min; state only the numeric part.

Asked: Entry under review: "CSc1nc(N)nc(-c2ccc3c4c(cc(Cl)cc24)COC3)n1" . Reported Tmax?
Given back: 30

* * *

Experiment: in vitro
Details: mouse, liver microsomes
Please mark TRUE if the recorded microsomal CLint at 1 h, 5 µM is equal to or greater than 7 µL/min/mg, and FALSE if it falls below.

Asked: Is microsomal CLint at 1 h, 5 µM for "Cc1cc(C)c2cc1C(=O)NCCNC(=O)CCCSc1cc-2nc(N)n1" at or above 7 µL/min/mg?
Given back: FALSE

Asked: Given "Cc1cc(C)c2cc1C(=O)NCCOC(=O)NCCSc1cc-2nc(N)n1" , state whether its microsomal CLint at 1 h, 5 µM is at least 7 µL/min/mg.
Given back: TRUE

Asked: Is reported microsomal CLint at 1 h, 5 µM greater than or equal to 7 µL/min/mg here: "CSc1nc(N)nc(-c2ccc3c4c(cc(Cl)cc24)COC3)n1"
Given back: TRUE

Asked: Say whether "Cc1cc(C)c2cc1C(=O)NCCCCNC(=O)CCSc1cc-2nc(N)n1" shows microsomal CLint at 1 h, 5 µM of 7 µL/min/mg or more.
Given back: FALSE

Asked: Kindly determine if microsomal CLint at 1 h, 5 µM recorded for "Cc1cc(C)c2cc1C(=O)NCCCCCNC(=O)CCSc1cc-2nc(N)n1" is above or exactly 7 µL/min/mg.
Given back: FALSE

Asked: Could you please find out whether "Cc1cc(C)c2cc1C(=O)NCCCC(=O)NCCSc1cc-2nc(N)n1" has microsomal CLint at 1 h, 5 µM that meets 7 µL/min/mg or exceeds it?
Given back: TRUE

Asked: Form field: microsomal CLint at 1 h, 5 µM at least 7 µL/min/mg? Entry: "Cc1cc(C)c2cc1C(=O)NCCNC(=O)OCCSc1cc-2nc(N)n1"
Given back: TRUE
